- Assay method text: GHS categories as the set defines them, by LD50: 1 up to 5, 2 up to 50, 3 up to 300, 4 up to 2000, 5 above 2000 mg/kg
- Protocol conditions: rat; in vivo; po
Test readout: GHS category
Answers are plain numbers.

Examples from the recorded data:
>>> reported("NC(=O)Oc1ccccc1C(=O)Oc1ccccc1Cl")
5
>>> reported("CCS(=O)c1c(C#N)nn(-c2c(Cl)cc(C(F)(F)F)cc2Cl)c1N (stereo not given)")
5
>>> reported("C=C[Si](C)(C)Cl")
3
>>> reported("O=[N+]([O-])c1cc(C(F)(F)F)c(Cl)c([N+](=O)[O-])c1Nc1ncc(C(F)(F)F)cc1Cl")
5

## Task # input compound: `CC(=O)[C@H]1CC[C@H]2[C@@H]3C=CC4=CC(=O)CC[C@@]4(C)[C@@H]3CC[C@]12C` ; wanted: its GHS category
## Result 5

* * *

- Assay method text: GHS categories as the set defines them, by LD50: 1 up to 5, 2 up to 50, 3 up to 300, 4 up to 2000, 5 above 2000 mg/kg
- Protocol conditions: rat; in vivo; po
Exercise: state measured GHS category for each of the compounds provided.
Give bare numbers.

>>> reported("CO[C@H]1C=CO[C@@]2(C)Oc3c(C)c(O)c4c(O)c(c5c(nc6cc(C)ccn65)c4c3C2=O)NC(=O)C(C)=CC=C[C@H](C)[C@H](O)[C@@H](C)[C@@H](O)[C@@H](C)[C@H](OC(C)=O)[C@@H]1C")
5

Dear colleague, could you please provide GHS category for the compounds listed below?
1. COC(=O)C(C=O)c1ccccc1 (configuration not stated)
2. CCOC(=O)C1=C(C)NC(C)=C(C(=O)OCCN2C(=O)c3ccccc3S2(=O)=O)C1C (configuration not stated)
3. CCOC(=O)CCn1c(=N)oc2ccccc21
4. CC1COC(Cn2cncn2)(c2cc3ccccc3o2)O1 (configuration not stated)
5. CCCCCCCOCC(C)CC=O (configuration not stated)
6. NC(=O)NCCO
7. OB(O)c1cc(F)c(F)c(F)c1

## Result
[4, 5, 4, 4, 5, 5, 4]

Give me GHS category for each of these compounds, listed below.
1. CN(CC(=O)O)N=O
2. CCN(CC)CC
3. CC(=O)c1ccc(Oc2ccc(Cl)cc2)cc1Cl

## Result
1. 5
2. 5
3. 5

## Task Can you share its GHS category? I mean this compound: COc1cc(C(=O)OCCOCCN2CCN(C(c3ccccc3)c3ccc(Cl)cc3)CC2)cc(OC)c1OC (configuration not stated)
## Result 5

* * *

- Assay method text: GHS categories as the set defines them, by LD50: 1 up to 5, 2 up to 50, 3 up to 300, 4 up to 2000, 5 above 2000 mg/kg
- Protocol conditions: rat; in vivo; po
Test readout: GHS category
Numbers only.

Recorded GHS category, per entry:
>>> reported("CCOC(=O)c1cn(C2CC2)c2cc(F)c(F)cc2c1=O")
5
>>> reported("CCCC(=O)C(C)=O")
5
>>> reported("CC(C)(CCn1c(=O)[nH]c2ccccc21)NCC(O)COc1cccc2ccccc12 (stereo unspecified)")
5
>>> reported("CC(CC(=O)OCCN1C(C)(C)CC(OC(=O)CC(C)CC(C)(C)C)CC1(C)C)CC(C)(C)C (stereo unspecified)")
5
>>> reported("CN1OCC(=Cc2cc(C(C)(C)C)c(O)c(C(C)(C)C)c2)C1=O")
4

Consider the additional molecule presented here.
## Task Item `C=CCN(C(C)=O)C(=O)Oc1cccc2c1OC(C)(C)O2` has what recorded GHS category?
## Result 4
